pKi: −log10 of the molar value.
Below, pKi values reported for Matrilysin (Homo sapiens, UniProt P09237) across several publications.

Solved entries:
CCN1CCC(C(=O)NO)(S(=O)(=O)c2ccc(OCCCc3nc(-c4ccc(OC(F)(F)F)cc4)no3)cc2)CC1    < 5.00
O=C(NCCc1cccs1)[C@H](O)[C@@H](O)C(=O)N1CCCC1c1cccc(Cl)c1 (some centres undefined)    < 4.30
Cc1cc(COc2ccc(C(=O)N[C@@H]3CNC[C@@H]3c3n[nH]c(=S)[nH]3)cc2)c2ccccc2n1 (relative stereo)    < 5.20
O=C(NO)[C@H]1CCCN1S(=O)(=O)CCc1ccccc1    5.15
Cc1cc(COc2ccc(C(=O)N[C@@H]3CN(C(=O)OC(C)(C)C)C[C@@H]3c3n[nH]c(=S)[nH]3)cc2)c2ccccc2n1 (relative stereo)    < 5.20

Input: Give the measured pKi of `COc1ccc(S(=O)(=O)N(CC(=O)NO)CC(C)C)cc1` .
Output: 4.89

Input: # lookup: pKi of `O=S(=O)(N[C@@H]1CCC[C@@H]1S)c1ccc(Oc2ccccc2)cc1`
Output: < 3.70

Input: pKi for `O=C(NO)C1(S(=O)(=O)c2ccc(OCCCc3nc(-c4ccc(OC(F)(F)F)cc4)no3)cc2)CCOCC1` ?
Output: < 5.00

Input: Using the record for O=S(=O)(N[C@H]1CCC[C@@H]1S)c1ccccc1 (racemic) , report its pKi.
Output: < 4.30
